// provenance: PubChem BioAssay AID624367

Assay: lymphoblastoid cell cytotoxicity, dose response, cytotoxicity control, plate reader, dry powder, set 2 (AID 624367)
Conditions: Lymphoblastoid cell line (LCL) cytotoxicity, plate reader; at 35 µM (top of the series)
Activity calls are given as the source filed them. How the calls were made is not given here.
QUANTITY: activity change, negative = cytotoxicity

Lookup: Look up activity change, negative = cytotoxicity: O=C(C[C@H]1CC[C@@H]2[C@H](COC[C@H](O)CN2Cc2ccc(Oc3ccccc3)cc2)O1)N1CCc2ccccc2C1
Found: -13.9% (inactive)

Lookup: Now give it for N#C[C@H]1N[C@H](CO)[C@H]1c1ccc(C#Cc2ccccc2F)cc1 too.
Found: -8.35% (inactive)

Lookup: Consider next the molecule Cc1noc(C)c1S(=O)(=O)Nc1ccc2c(c1)C(=O)N([C@H](C)CO)C[C@@H](C)[C@H](CN(C)Cc1ccc(C(F)(F)F)cc1)OCCCC[C@H](C)O2 in the same way.
Found: -6.93% (inactive)

Lookup: Another molecule: COc1ccccc1CNC(=O)C[C@@H]1C[C@H]2c3cc(NC(=O)c4ccc5c(c4)OCO5)ccc3O[C@H]2[C@H](CO)O1
Found: -4.54% (inactive)

Lookup: // query: C[C@H](CO)N1C[C@H](C)[C@H](CN(C)Cc2ccc(C(F)(F)F)cc2)Oc2ccc(NC(=O)Cc3ccccc3)cc2CC1=O
Found: 3.51% (inactive)

Lookup: Request: O=C(Cc1ccccn1)NCC[C@H]1CC[C@H](NC(=O)Nc2ccc(Cl)cc2)[C@H](CO)O1
Found: 7.55% (inactive)

Lookup: Now this one: Cc1noc(C)c1S(=O)(=O)Nc1ccc2c(c1)C(=O)N([C@H](C)CO)C[C@H](C)[C@@H](CN(C)Cc1ccc(C(F)(F)F)cc1)OCCCC[C@@H](C)O2
Found: -2.6% (inactive)

Lookup: Proceed to Cc1noc(C)c1S(=O)(=O)Nc1ccc2c(c1)C(=O)N([C@H](C)CO)C[C@@H](C)[C@H](CN(C)Cc1ccc(C(F)(F)F)cc1)OCCCC[C@@H](C)O2
Found: -9.24% (inactive)

Lookup: Again, but for C[C@@H](NC(=O)C[C@@H]1C=C[C@H](NC(=O)Cc2ccccn2)[C@@H](CO)O1)c1ccccc1
Found: -4.44% (inactive)

Lookup: Same question for CCCNC(=O)c1cc2c(c(-c3cccc(-c4cccc(F)c4)c3)n1)[C@H](CCO)N([S@@](=O)C(C)(C)C)C2 please.
Found: -1.43% (inactive)

Lookup: Next: COc1ccccc1C#Cc1ccc2c(c1)O[C@H](CN(C)Cc1cccnc1)[C@@H](C)CN([C@@H](C)CO)S2(=O)=O
Found: -6.79% (inactive)

Lookup: Entry to check: O=C(C[C@@H]1C[C@H]2c3cc(NS(=O)(=O)c4ccc(F)cc4)ccc3O[C@H]2[C@H](CO)O1)NCc1ccc(Oc2ccccc2)cc1
Found: -1.34% (inactive)

Lookup: Proceed to N#C[C@H]1[C@@H](c2ccc(-c3cccnc3)cc2)[C@@H](CO)N1C(=O)Nc1ccc(F)cc1
Found: 3.54% (inactive)

Lookup: Thanks! And O=C(C[C@@H]1CC[C@@H]2[C@H](COC[C@@H](O)CN2Cc2ccc3c(c2)OCO3)O1)Nc1ccc(-c2ccccc2)cc1 ?
Found: -8.48% (inactive)

Lookup: Repeat with C[C@@H]1CN([C@@H](C)CO)S(=O)(=O)c2ccc(C#Cc3ccncc3)cc2O[C@H]1CN(C)C(=O)Nc1ccc2c(c1)OCO2
Found: -1.7% (inactive)

Lookup: Query C[C@@H](NC(=O)C[C@H]1C=C[C@@H](NC(=O)Cc2ccccn2)[C@H](CO)O1)c1ccccc1 next
Found: -1.43% (inactive)

Lookup: Proceed to C[C@H]1CN([C@@H](C)CO)C(=O)Cc2cc(NC(=O)Cc3ccccc3)ccc2O[C@H]1CN(C)Cc1ccc(C(F)(F)F)cc1
Found: 2.21% (inactive)

Lookup: Could you do the same for C/C=C/c1cccc(-c2nc(C(=O)Nc3nccs3)cc3c2[C@@H](CCO)N(C(=O)NC(C)C)C3)c1 , please?
Found: 3.79% (inactive)

Lookup: Queued: C[C@@H]1CN([C@@H](C)CO)C(=O)c2c(c3ccccc3n2C)-c2ccccc2CO[C@H]1CN(C)C(=O)Nc1ccc(F)cc1
Found: 3.34% (inactive)

Lookup: And CC(C)(C)[S@@](=O)N1Cc2cc(C(=O)NCc3ccccc3F)nc(-c3cccc(-c4ccncc4)c3)c2[C@H]1CCO ?
Found: 0.812% (inactive)

Lookup: Record: C[C@H](NC(=O)C[C@H]1C=C[C@H](NC(=O)Cc2ccccn2)[C@@H](CO)O1)c1ccccc1
Found: 0.993% (inactive)

Lookup: Would you kindly repeat that for CC(C)(C)[S@@](=O)N1Cc2cc(C(=O)NCc3ccccc3F)nc(-c3cccc(-c4cccnc4)c3)c2[C@H]1CCO ?
Found: -3.02% (inactive)

Lookup: # iterate: C[C@@H]1CN([C@H](C)CO)S(=O)(=O)c2ccc(/C=C/c3ccccc3)cc2O[C@H]1CN(C)C(=O)NC1CCCCC1
Found: -0.754% (inactive)

Lookup: Now consider Cc1cc(C(=O)Nc2ccc3c(c2)C(=O)N(C)[C@@H]2CC[C@@H](CC(=O)NCc4ccc(-c5ccccc5)cc4)O[C@H]2CO3)no1 .
Found: -5.25% (inactive)

Lookup: Could you do the same for COc1ccccc1C#Cc1ccc2c(c1)O[C@H](CN(C)Cc1cccnc1)[C@H](C)CN([C@H](C)CO)S2(=O)=O , please?
Found: -2.03% (inactive)

Lookup: Check COc1ccc(S(=O)(=O)N(C)C[C@H]2Oc3ncc(/C=C/c4ccccc4)cc3C(=O)N([C@H](C)CO)C[C@@H]2C)cc1 too.
Found: 7.14% (inactive)

Lookup: How about this molecule: Cc1noc(C)c1S(=O)(=O)Nc1ccc2c(c1)C(=O)N([C@@H](C)CO)C[C@H](C)[C@@H](CN(C)Cc1ccc(C(F)(F)F)cc1)OCCCC[C@@H](C)O2
Found: -4.06% (inactive)

Lookup: And O=C(C[C@@H]1C[C@H]2c3cc(NC(=O)c4ccc5c(c4)OCO5)ccc3O[C@H]2[C@H](CO)O1)NC1CCCCC1 ?
Found: -16.7% (inactive)

Lookup: Can you handle CC(=O)N(C)C[C@@H]1Oc2cc(C#Cc3ccc(F)cc3)ccc2S(=O)(=O)N([C@H](C)CO)C[C@H]1C next?
Found: 1.69% (inactive)
